target: Coagulation factor X (Homo sapiens)
Sequence (P00742 41-179 limits assumed): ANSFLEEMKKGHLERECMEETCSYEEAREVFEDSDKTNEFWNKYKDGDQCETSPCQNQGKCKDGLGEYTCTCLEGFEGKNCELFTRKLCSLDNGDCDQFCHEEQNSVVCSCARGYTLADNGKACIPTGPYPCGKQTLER
Sequence (P00742 235-488 limits assumed): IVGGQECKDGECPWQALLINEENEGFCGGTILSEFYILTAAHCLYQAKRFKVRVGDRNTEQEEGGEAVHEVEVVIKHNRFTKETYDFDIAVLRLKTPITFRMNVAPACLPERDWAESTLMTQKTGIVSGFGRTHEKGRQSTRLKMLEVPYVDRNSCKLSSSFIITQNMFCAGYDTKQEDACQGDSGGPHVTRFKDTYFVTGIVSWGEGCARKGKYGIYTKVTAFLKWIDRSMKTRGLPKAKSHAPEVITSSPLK
pIC50: −log10 of the molar value.
Quantity Measured: pIC50

A selection of reference data follows.
O=C(c1ccc2c(c1)CCNC2)N1CCN(S(=O)(=O)c2ccc3cc(Cl)ccc3c2)CC1 : 6.19
NC(=O)C1CN(S(=O)(=O)c2ccc3cc(Cl)ccc3c2)CCN1C(=O)c1nc2c(s1)CNCC2 (stereo unspecified) : 7.08
CN1CCc2[nH]c(C(=O)N3CCN(S(=O)(=O)c4ccc5cc(Cl)ccc5c4)CC3)cc2C1 : 6.49

(I) CCN1CCc2nc(C(=O)N3CCN(S(=O)(=O)c4ccc5cc(Cl)ccc5c4)CC3C(N)=O)sc2C1 (stereo unspecified)
(II) O=C(c1cc2c(s1)CCNC2)N1CCN(S(=O)(=O)c2ccc3cc(Cl)ccc3c2)CC1
(III) O=C(c1cc2c([nH]1)CCNC2)N1CCN(S(=O)(=O)c2ccc3cc(Cl)ccc3c2)CC1
Arrange the 3 molecules from largest to smallest pIC50. Write the labels out in the order the request specifies. I, II, III
(I: 6.96, II: 6.57, III: 5.21)

* * *

# Anticoagulant activity per record follows
assay: Anticoagulant activity in vitro was evaluated with plasma clotting time doubling concentration for prothrombin time; type: functional, Homo sapiens
Write it as a number; the unit µM goes unstated.

O=C(c1nc2c(s1)CNCC2)N1CCN(S(=O)(=O)c2ccc3cc(Cl)ccc3c2)CC1 : 11.2

Find the recorded Anticoagulant activity belonging to CCN1CCc2nc(C(=O)N3CCN(S(=O)(=O)c4ccc5cc(Cl)ccc5c4)CC3C(N)=O)sc2C1 (stereo unspecified) and report it. 7.2

* * *

test: Anticoagulant activity in vitro was evaluated with plasma clotting time doubling concentration for prothrombin time; type: functional, Homo sapiens
Quantity Measured: Anticoagulant activity (µM)
Report only the number, with the unit µM understood.

Below, each entry is followed by its recorded Anticoagulant activity result.
CN1CCc2nc(C(=O)N3CCN(S(=O)(=O)c4ccc5cc(Cl)ccc5c4)CC3)sc2C1 : 6
NC(=O)C1CN(S(=O)(=O)c2ccc3cc(Cl)ccc3c2)CCN1C(=O)c1nc2c(s1)CNCC2 (centres undefined) : 9.7
CC(C)N1CCc2nc(C(=O)N3CCN(S(=O)(=O)c4ccc5cc(Cl)ccc5c4)CC3C(N)=O)sc2C1 (centres undefined) : 6.6

We now examine a further molecule.
Query (molecule): CN1CCc2nc(C(=O)N3CCN(S(=O)(=O)c4ccc5cc(Cl)ccc5c4)CC3C(N)=O)sc2C1 (centres undefined) ; field requested: Anticoagulant activity 4.4

Where these numbers come from: ChEMBL document CHEMBL1138780
